- measured.target: Toll-like receptor 9 (Homo sapiens, UniProt Q9NR96)
- Sequence (Q9NR96 whole entry): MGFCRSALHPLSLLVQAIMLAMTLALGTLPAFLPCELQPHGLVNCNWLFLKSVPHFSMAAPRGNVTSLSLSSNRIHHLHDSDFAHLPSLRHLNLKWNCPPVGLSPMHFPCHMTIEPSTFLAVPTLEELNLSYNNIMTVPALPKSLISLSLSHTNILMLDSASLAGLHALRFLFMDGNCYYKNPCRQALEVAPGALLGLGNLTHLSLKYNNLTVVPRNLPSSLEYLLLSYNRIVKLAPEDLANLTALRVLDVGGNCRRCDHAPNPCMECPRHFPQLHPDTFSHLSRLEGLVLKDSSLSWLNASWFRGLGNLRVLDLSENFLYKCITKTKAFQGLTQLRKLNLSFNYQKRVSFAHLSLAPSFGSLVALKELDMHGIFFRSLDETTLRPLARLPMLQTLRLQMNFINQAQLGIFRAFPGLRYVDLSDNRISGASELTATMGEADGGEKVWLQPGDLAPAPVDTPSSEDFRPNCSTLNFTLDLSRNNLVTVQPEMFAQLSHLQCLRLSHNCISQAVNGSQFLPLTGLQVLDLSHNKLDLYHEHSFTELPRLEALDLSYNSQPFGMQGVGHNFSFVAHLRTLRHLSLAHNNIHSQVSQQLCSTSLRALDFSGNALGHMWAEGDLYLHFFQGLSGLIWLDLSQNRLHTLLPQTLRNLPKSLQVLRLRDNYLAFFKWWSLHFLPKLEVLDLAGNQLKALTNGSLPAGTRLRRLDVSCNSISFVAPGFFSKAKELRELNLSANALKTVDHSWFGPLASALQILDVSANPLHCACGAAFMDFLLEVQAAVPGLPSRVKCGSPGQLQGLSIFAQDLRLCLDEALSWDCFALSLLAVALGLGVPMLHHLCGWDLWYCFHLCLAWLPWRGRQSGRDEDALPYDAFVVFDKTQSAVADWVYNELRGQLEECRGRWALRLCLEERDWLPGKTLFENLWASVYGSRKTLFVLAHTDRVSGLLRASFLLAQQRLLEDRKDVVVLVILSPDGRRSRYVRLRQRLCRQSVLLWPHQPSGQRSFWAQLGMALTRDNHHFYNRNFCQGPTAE
- test.protocol: TLR9 Antagonism Assay: Day 1: A cell suspension of HEK-Blue™-hTLR9 cells at ~450,000 cells per ml in test medium which contained 5% (v/v) heat inactivated FBS was prepared. 180 μl of cell suspension (~80,000 cells) was added per well of a flat-bottom 96-well plate and place in an incubator at 37° C. for overnight. Day 2: Test compounds were serially diluted in test medium, generally starting at 10 μM, and diluting by 3 fold in a 96 well master plate. 20 μl of diluted test compound was transferred using a 12 channel multi-channel pipet to the cell plate and incubated at 37° C. for 1 hour. Then 20 μl of an hTLR9 agonist (such as ODN 2006, 1 μM) was added to each well and the plate incubated at 37° C. overnight. Day 3: Invivogen's QUANTI-Blue™ was prepared following the manufacturer's instructions. […] of resuspended QUANTI-Blue™ was added per well of a flat bottom 96-well plate. 20 μl per well of induced HEK-Blue™-hTLR9 cells supernatant was then added to the plate and the plate was incubated at 37° C. for 1-3 h. SEAP levels were determined using a spectrophotometer at 620 nm.
recorded.endpoint: IC50 (µM)

As a guide, the following entries are already answered.
>  <smiles.data>
CCN1CCN(c2ccc(-c3nc(NCCN4CCOCC4)c4nc[nH]c4n3)cc2)CC1

>  <measured.target>
Toll-like receptor 9 (Homo sapiens, UniProt Q9NR96)

>  <IC50 / µM>
0.142

$$$$
>  <smiles.data>
c1ccc(-c2nc(NCCN3CCOCC3)c3ncn(CCN4CCOCC4)c3n2)cc1

>  <measured.target>
Toll-like receptor 9 (Homo sapiens, UniProt Q9NR96)

>  <IC50 / µM>
7.53

$$$$
>  <smiles.data>
CCCCSc1nc(NCCN2CCOCC2)c2nc(O)n(CCN3CCOCC3)c2n1

>  <measured.target>
Toll-like receptor 9 (Homo sapiens, UniProt Q9NR96)

>  <IC50 / µM>
11.1

$$$$
>  <smiles.data>
CN1CCN(CCNc2nc(-c3ccccc3)nc3c2ncn3CCN2CCOCC2)CC1

>  <measured.target>
Toll-like receptor 9 (Homo sapiens, UniProt Q9NR96)

>  <IC50 / µM>
3.29

$$$$
>  <smiles.data>
CN1CCN(c2ccc(-c3nc(NCCN4CCOCC4)c4nc[nH]c4n3)cc2)CC1

>  <measured.target>
Toll-like receptor 9 (Homo sapiens, UniProt Q9NR96)

>  <IC50 / µM>
0.072

$$$$
>  <smiles.data>
Oc1nc2c(NCCN3CCOCC3)nc(-c3ccccc3)nc2n1CCN1CCOCC1

>  <measured.target>
Toll-like receptor 9 (Homo sapiens, UniProt Q9NR96)

>  <IC50 / µM>
8.01

$$$$

[A] CCOC(=O)Cn1cnc2c(NCCN3CCOCC3)nc(-c3ccc(N4CCN(C)CC4)cc3)nc21
[B] CN1CCN(CCNc2nc(-c3ccccc3)nc3c2ncn3CCN2CCN(C)CC2)CC1
Task item: So which one has the bigger IC50 here, A or B ? Return value: the label identifying the chosen record.
Reply: A
